Where do the numbers come from? From paper PMC11318101.

# TGT: SARS-CoV-2 PLPro (full-length, intact C111) (Severe acute respiratory syndrome coronavirus 2, UniProt P0DTD1, C1833S)
# Assay type: biochemical
RESULT_TYPE: inhibition at 1 mM (%)
State the answer as a number, implicitly in %.

Give its inhibition at 1 mM value. Item: `Cc1cc(Nc2ccccc2C)n2ncnc2n1`
5

Now the same for `CC(C)c1cc(O)n2ncc(-c3ccccc3)c2n1`
62

Now the same for `Cc1ccc(Nc2cc(C)nc3nncn23)c(C)c1`
2

Now the same for `Cn1ncc2c(Nc3ccccc3Cl)ncnc21`
30
